- method_summary: yeast display, Sf9 membrane polyspecificity reagent, FACS + sequencing; frameworks hold sequencing errors
measured_property: polyreactivity (PSR sort gate)

Observe how each entry below is paired with its result.
# ordered_residues, polyreactivity (PSR sort gate)
records = [
    ("QDQLVESGGGLVQAGGSLRLSCAASGSTFAGNGMGWYRQAPGKERELVAGIDVTGGSTYYADSVKGRFTISRDNAKNTVYLQMNSLKPEDTAVYFCNARYVYHSSFAGFDYWGQGTQVTVSS", "low polyreactivity"),
    ("QVQLVESGGGLVQAGGSLRLSCAATGSTFGGNAMGWYRQAPGKERELVAAISSSGGSTYYADSVKGRFTISRDNAKNTVYLQRNRLKPEDTAVYYCAALYHWTYDYWGQGTQVTVSS", "low polyreactivity"),
    ("QVQLVESVGGLVQAGASHRLSCAASGLNFFKYTMGWYIQAPGKERELVAAISRRGGSTYYADSVKGRFTISRDNAKNTVYLQMNSLKPDDTAVYYCNKRLGTGYYYGYDYWGQGTQVTGSS", "high polyreactivity"),
    ("QVQLVESGGGLVQAGGSLRLSCAASGRTFYRNAMGWYRQAPGKEREFVASIDWSGGSTYYADSVKGRFTISRDNAKNTVYLQMNSLKPEDTAVYYCAAELDYFPGYDYWGQGTQVTVSS", "low polyreactivity"),
]

Consider now this further sequence.
What the record says about QVKLVESGGGLVQAGGSLRLSCAASGFIFSNNAMGWYRQAPGKERELVAAITSSGGRTYYADSVKGRFTISRDYAKNTVYLQMNSLKPEDSSVYYCAAARYDIMGYWGLGTQVTVSS : polyreactivity (PSR sort gate) is high polyreactivity
